# targetOrTestSystem: T1, eukaryotic translation initiation factor 4E (eIF4E), full length human (human, UniProt P06730 2-217)
# T1 construct: mature; read as P06730; also called eIF4E protein
# T1 sequence (P06730 2-217): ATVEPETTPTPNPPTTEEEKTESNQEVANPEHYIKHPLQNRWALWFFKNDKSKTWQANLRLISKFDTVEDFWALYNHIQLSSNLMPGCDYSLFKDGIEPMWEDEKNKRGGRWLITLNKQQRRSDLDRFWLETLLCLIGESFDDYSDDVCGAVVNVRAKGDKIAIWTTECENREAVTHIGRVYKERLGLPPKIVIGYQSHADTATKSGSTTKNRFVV
# assayDetails: Kd estimated from the FTS thermal shift of eIF4E (10 µM eIF4E, 100 µM peptide)
Square brackets hold non-standard residues; d marks the D form. Ends that are not written are not given here. Ac5c = NC1(C(=O)O)CCCC1
measuredEndpoint: pKd
Interpret pKd as the negative base-10 log of the concentration measured in mol/L.

Consider the following illustrative entries.
>>> measured("YDREFLLXFQF (position 631 (printed '3') = 1-amino cyclopropanoic acid; C-terminal amide (-NH2)) [Tr2_AIB3_A3C]")
5.60
>>> measured("YDREFLL[Ac5c]FAF (not fully specified (C-terminus)) [Tr2_ALA_A5C6 (Tr2_AIB3_A5C with alanine at position 633)]")
5.86
>>> measured("YDAEFLL[Ac5c]FQF (not fully specified (C-terminus)) [Tr2_ALA_A5C2 (Tr2_AIB3_A5C with R626 replaced with alanine)]")
4.84

Proceed to the following item.
The value of pKd measured for the binder YDREFLL[Ac5c]AQF (not fully specified (C-terminus)) [Tr2_ALA_A5C5 (Tr2_AIB3_A5C with F632 replaced with alanine)] turned out to be 5.08

Reference source: patent US20130130989A1
